assay: Half life in Sprague-Dawley (CD) rat at 1 mg/kg, iv and 5 mg/kg, po; type: ADME, organism-based; settings: in vivo
Attribute: half-life

Would you please look over these solved cases?
| smiles-string | half-life |
| --- | --- |
| O=c1nc(Nc2ccc(CN3CCOCC3)cc2)c2cccnc2n1O | 0.4 h |
| O=c1nc(NCc2ccc(N3CCOCC3)cc2)c2cccnc2n1O | 4.5 h |

Fill in: half-life of `O=c1nc(Nc2ccc(N3CCOCC3)cc2)c2cccnc2n1O` is ___
2.4 h

----------
A collection of molecules and their measured AUC/dose
system: Rattus norvegicus; assay: Dose normalized AUC in Sprague-Dawley (CD) rat at 1 mg/kg, iv; assay type: ADME, organism-based; design: dose 1 mg/kg, route intravenous; details: in vivo
// unit must come after the numeric part

| smiles-string | recorded-value |
| --- | --- |
| O=c1nc(Nc2ccc(CN3CCOCC3)cc2)c2cccnc2n1O | 226 ng·h/mL/mg |

Can you look up AUC/dose on Rattus norvegicus for `O=c1nc(NCc2ccc(-c3ccncc3)cc2)c2cccnc2n1O` ?
1000 ng·h/mL/mg

Notebook: pull reported AUC/dose for Rattus norvegicus, entry `O=c1nc(NCc2ccc(N3CCOCC3)cc2)c2cccnc2n1O`
713 ng·h/mL/mg

Tell me reported AUC/dose for `O=c1nc(Nc2ccc(N3CCOCC3)cc2)c2cccnc2n1O` , tested with Rattus norvegicus.
314 ng·h/mL/mg

Item `O=c1nc(Nc2ccc(-c3ccncc3)cc2)c2cccnc2n1O` with Rattus norvegicus - AUC/dose?
1942 ng·h/mL/mg

Test system Rattus norvegicus; read-out AUC/dose; what value for `O=c1nc(Nc2ccc(-c3ccccc3)cc2)c2cccnc2n1O` ?
2934 ng·h/mL/mg
